Examples of compounds with documented pEC50 follow.
biological target: UniProt:P34972; experiment: cell-based; type: cell-based
pEC50: −log10 of the molar value.

Smiles string: CC(C)(C)NC(=O)c1cnc2c(c1)N(S(=O)(=O)c1ccc(F)cc1)CCO2
pEC50: ≥ 7.52

Smiles string: CC(C)(C)NC(=O)c1cnc2c(c1)N(S(=O)(=O)N1CCC(F)(F)CC1)CCO2
pEC50: ≥ 7.52

Smiles string: CC(C)(CO)CNC(=O)c1cnc2c(c1)N(S(=O)(=O)N1CC(F)(F)C1)CCO2
pEC50: < 4.52

Smiles string: CCC(C)(C)NC(=O)c1cnc2c(c1)N(S(=O)(=O)N1CCC(F)CC1)CCO2
pEC50: ≥ 7.52

Smiles string: CC(C)(C)NC(=O)c1cnc2c(c1)N(S(=O)(=O)N1CCc3ccccc3C1)CCO2
pEC50: < 4.52

In: # query: pEC50 of entry CCC(C)(C)NC(=O)c1cnc2c(c1)N(S(=O)(=O)N1CCC(c3ccccc3)CC1)CCO2
Out: < 4.52

In: Next compound: CC(C)(CO)CNC(=O)c1cnc2c(c1)N(S(=O)(=O)N1CCC(c3ccccc3)CC1)CCO2
Out: < 4.52

In: Next compound: CC(C)(C)NC(=O)c1cnc2c(c1)N(S(=O)(=O)c1ccc3ccccc3c1)CCO2
Out: < 4.52

###

Examples of compounds with documented EC50 follow.
molecular target: rat CB2 receptor (Rattus norvegicus); test: cell-based; format: cell-based

A selection of reference data follows.
Compound: O=C(NC1CCC1)c1cnc2c(c1)N(S(=O)(=O)c1ccc(Cl)c(Cl)c1)CCO2 [Example 137]
Result: ≤ 0.03 µM

Compound: CC(C)(C)NC(=O)c1cnc2c(c1)N(S(=O)(=O)N1CC(F)(F)C1)CCO2 [Example 193]
Result: ≤ 0.03 µM

In: # query: EC50 of entry O=C(N[C@H]1CCC[C@@H]1O)c1cnc2c(c1)N(S(=O)(=O)c1ccc(Cl)cc1F)CCO2 [Example 111]
Out: ≤ 0.03 µM

###

Examples of compounds with documented pEC50 follow.
biological target: rat CB2 receptor (Rattus norvegicus, UniProt Q9QZN9); test: cell-based; type: cell-based
pEC50: −log10 of the molar value.

A selection of reference data follows.
Smiles string: O=C(c1cnc2c(c1)N(S(=O)(=O)c1ccccc1)CCO2)N1CCOCC1
Assayed system: rat CB2 receptor (Rattus norvegicus, UniProt Q9QZN9)
pEC50: < 4.52
--
Smiles string: CC(C)(C)NC(=O)c1cnc2c(c1)N(S(=O)(=O)c1cccc(F)c1)CCO2
Assayed system: rat CB2 receptor (Rattus norvegicus, UniProt Q9QZN9)
pEC50: ≥ 7.52
--
Smiles string: O=C(N[C@@H]1CCC[C@H]1O)c1cnc2c(c1)N(S(=O)(=O)c1ccc(Cl)c(Cl)c1)CCO2
Assayed system: rat CB2 receptor (Rattus norvegicus, UniProt Q9QZN9)
pEC50: ≥ 7.52

Below: the item to evaluate.
In: # query: pEC50 of entry CC(C)(C)NC(=O)c1cnc2c(c1)N(S(=O)(=O)N1CCCC1)CCO2
Out: ≥ 7.52

###

target: human CB2 receptor (Homo sapiens, UniProt P34972); assay: cell-based; assay type: cell-based
Sequence (P34972 whole entry): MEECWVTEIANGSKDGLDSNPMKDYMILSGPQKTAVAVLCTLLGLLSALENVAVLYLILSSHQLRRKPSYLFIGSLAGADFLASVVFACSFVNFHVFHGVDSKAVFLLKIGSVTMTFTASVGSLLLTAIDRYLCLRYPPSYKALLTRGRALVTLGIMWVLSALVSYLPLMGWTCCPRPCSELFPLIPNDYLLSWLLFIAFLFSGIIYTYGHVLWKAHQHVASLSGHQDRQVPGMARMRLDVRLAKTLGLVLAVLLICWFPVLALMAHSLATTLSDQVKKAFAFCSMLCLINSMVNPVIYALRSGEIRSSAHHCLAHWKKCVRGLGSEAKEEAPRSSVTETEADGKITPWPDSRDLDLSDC
Examples of compounds with documented EC50 follow.

A selection of reference data follows.
Smiles string: O=C(N[C@@H]1CCCC[C@H]1O)c1cnc2c(c1)N(S(=O)(=O)c1ccc(Cl)c(Cl)c1)CCO2
Result: > 30 µM
//
Smiles string: CN(CC(C)(C)CO)C(=O)c1cnc2c(c1)N(S(=O)(=O)N1CCc3ccccc3C1)CCO2
Result: > 30 µM
//
Smiles string: CC(C)(C)c1cc(NC(=O)c2cnc3c(c2)N(S(=O)(=O)N2CCC(F)(F)C2)CCO3)no1
Result: > 30 µM
//
Smiles string: CC(C)(C)CNC(=O)c1cnc2c(c1)N(S(=O)(=O)c1ccc(F)cc1)CCO2
Result: ≤ 0.03 µM

In: # query: EC50 of entry CC(C)(C)c1nnc(-c2cnc3c(c2)N(S(=O)(=O)c2ccc(F)cc2)CCO3)o1
Out: ≤ 0.03 µM

In: Next compound: CC(C)(C)NC(=O)c1cnc2c(c1)N(S(=O)(=O)c1ccc(Cl)cc1)CCO2
Out: ≤ 0.03 µM

In: Next compound: CNC(=O)[C@@H](NC(=O)c1cnc2c(c1)N(S(=O)(=O)c1ccccc1)CCO2)C(C)(C)C
Out: > 30 µM

In: Next compound: CC(C)(C)NC(=O)c1cnc2c(c1)N(S(=O)(=O)N1CCC(Cl)CC1)CCO2
Out: > 30 µM

In: Next compound: CC(C)(CO)CNC(=O)c1cnc2c(c1)N(S(=O)(=O)N1CCc3ccccc3C1)CCO2
Out: > 30 µM

###

Examples of molecules with documented EC50 follow.
Target: rat CB2 receptor (Rattus norvegicus)
Sequence (Q9QZN9 1-360): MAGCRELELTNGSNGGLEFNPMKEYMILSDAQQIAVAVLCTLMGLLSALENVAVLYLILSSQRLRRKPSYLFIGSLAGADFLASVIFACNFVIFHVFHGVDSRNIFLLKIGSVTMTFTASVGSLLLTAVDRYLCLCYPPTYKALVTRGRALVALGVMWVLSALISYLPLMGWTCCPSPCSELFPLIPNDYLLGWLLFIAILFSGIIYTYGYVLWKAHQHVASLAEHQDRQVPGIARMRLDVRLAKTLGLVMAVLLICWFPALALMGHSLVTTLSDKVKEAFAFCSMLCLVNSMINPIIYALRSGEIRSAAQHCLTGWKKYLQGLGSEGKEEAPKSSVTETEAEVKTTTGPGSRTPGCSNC
Test: cell-based
Assay type: cell-based

In: # query: EC50 of entry CCC(C)(C)NC(=O)c1cnc2c(c1)N(S(=O)(=O)N1CCC(Cl)CC1)CCO2
Out: ≤ 30 nM

In: Next molecule: Cc1ccc(S(=O)(=O)N2CCOc3ncc(C(=O)NC(C)(C)C)cc32)s1
Out: ≤ 30 nM

In: Next molecule: CC(C)(CO)NC(=O)c1cnc2c(c1)N(S(=O)(=O)c1ccc(F)cc1F)CCO2
Out: ≤ 30 nM

In: Next molecule: CC(C)(CO)CNC(=O)c1cnc2c(c1)N(S(=O)(=O)N1CCc3ccccc3C1)CCO2
Out: ≤ 30 nM

In: Next molecule: Cc1csc(S(=O)(=O)N2CCOc3ncc(C(=O)NC(C)(C)C)cc32)c1
Out: ≤ 30 nM

In: Next molecule: O=C(NC1(CO)CCC1)c1cnc2c(c1)N(S(=O)(=O)c1ccc(Cl)c(Cl)c1)CCO2
Out: ≤ 30 nM

In: Next molecule: CCOC(=O)C1(NC(=O)c2cnc3c(c2)N(S(=O)(=O)c2ccc(C(F)(F)F)cc2)CCO3)CCC1
Out: ≤ 30 nM

In: Next molecule: COCCCNC(=O)c1noc(-c2cnc3c(c2)N(S(=O)(=O)c2ccc(F)cc2)CCO3)n1
Out: ≤ 30 nM

###

target: human CB1 receptor (Homo sapiens, UniProt P21554); test: cell-based
Sequence (P21554 whole entry): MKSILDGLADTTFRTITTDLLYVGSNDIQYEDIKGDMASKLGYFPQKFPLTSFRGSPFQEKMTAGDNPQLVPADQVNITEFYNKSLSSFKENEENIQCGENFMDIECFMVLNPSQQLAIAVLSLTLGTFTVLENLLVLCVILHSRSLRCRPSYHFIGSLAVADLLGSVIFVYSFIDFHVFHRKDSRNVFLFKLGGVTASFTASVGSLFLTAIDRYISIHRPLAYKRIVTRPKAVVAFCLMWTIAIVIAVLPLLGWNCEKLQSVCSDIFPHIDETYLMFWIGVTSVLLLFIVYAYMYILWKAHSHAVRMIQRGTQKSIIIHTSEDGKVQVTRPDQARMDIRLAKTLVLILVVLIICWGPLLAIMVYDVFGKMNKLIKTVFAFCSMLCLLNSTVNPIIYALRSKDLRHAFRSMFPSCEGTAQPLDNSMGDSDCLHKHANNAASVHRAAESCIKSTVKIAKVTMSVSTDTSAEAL
pEC50: −log10 of the molar value.
Assay readout: pEC50

Molecule: O=C(NCCO)c1cnc2c(c1)N(S(=O)(=O)c1ccc(Cl)c(Cl)c1)CCO2
pEC50: < 4.52

In: Look up pEC50 with human CB1 receptor (Homo sapiens, UniProt P21554) for this molecule: CC(C)(C)NC(=O)c1cnc2c(c1)N(S(=O)(=O)c1ccc3ccccc3c1)CCO2
Out: < 4.52

In: Next molecule: CC1(C)CN=C(c2cnc3c(c2)N(S(=O)(=O)c2ccc(C(F)(F)F)cc2)CCO3)NC1
Out: < 4.52

In: Next molecule: CC1CC(C)CN(C(=O)c2cnc3c(c2)N(S(=O)(=O)c2ccc(C(F)(F)F)cc2)CCO3)C1 (stereo not shown)
Out: < 4.52

###

molecular target: rat CB2 receptor (Rattus norvegicus, UniProt Q9QZN9); test: cell-based; type: cell-based
Assay readout: EC50

A selection of reference data follows.
Compound: O=C(NC1(C(=O)O)CC1)c1cnc2c(c1)N(S(=O)(=O)c1ccc(C(F)(F)F)cc1)CCO2
Assay readout: EC50
Result: > 30000 nM
--
Compound: CC(C)(CO)CNC(=O)c1cnc2c(c1)N(S(=O)(=O)c1ccc(Cl)c(Cl)c1)CCO2
Assay readout: EC50
Result: ≤ 30 nM
--
Compound: CCC(C)(C)NC(=O)c1cnc2c(c1)N(S(=O)(=O)N1CCC(C(F)(F)F)CC1)CCO2
Assay readout: EC50
Result: ≤ 30 nM
--
Compound: C[C@H]1CCCCN1C(=O)c1cnc2c(c1)N(S(=O)(=O)c1ccc(C(F)(F)F)cc1)CCO2
Assay readout: EC50
Result: ≤ 30 nM
--
Compound: O=C(c1cnc2c(c1)N(S(=O)(=O)c1ccc(C(F)(F)F)cc1)CCO2)N1CCS(=O)(=O)CC1
Assay readout: EC50
Result: > 30000 nM

In: # query: EC50 of entry O=S(=O)(c1ccc(F)cc1)N1CCOc2ncc(-c3nc4ncccc4o3)cc21
Out: ≤ 30 nM

In: Next compound: COCC1CCCCN1C(=O)c1cnc2c(c1)N(S(=O)(=O)c1ccc(C(F)(F)F)cc1)CCO2 (racemic)
Out: ≤ 30 nM
